Every entry's value here was drawn from patent US20160115500A1.

# measured.on: T1, GAL4 activation domain fusion (ACT) to HAB1 (UniProt Q9CAJ0 23-511, limits assumed)
# T1 construct: pACT-HAB1 fusion in yeast reporter strains; also called pACT-HAB1
# T1 sequence (looked up): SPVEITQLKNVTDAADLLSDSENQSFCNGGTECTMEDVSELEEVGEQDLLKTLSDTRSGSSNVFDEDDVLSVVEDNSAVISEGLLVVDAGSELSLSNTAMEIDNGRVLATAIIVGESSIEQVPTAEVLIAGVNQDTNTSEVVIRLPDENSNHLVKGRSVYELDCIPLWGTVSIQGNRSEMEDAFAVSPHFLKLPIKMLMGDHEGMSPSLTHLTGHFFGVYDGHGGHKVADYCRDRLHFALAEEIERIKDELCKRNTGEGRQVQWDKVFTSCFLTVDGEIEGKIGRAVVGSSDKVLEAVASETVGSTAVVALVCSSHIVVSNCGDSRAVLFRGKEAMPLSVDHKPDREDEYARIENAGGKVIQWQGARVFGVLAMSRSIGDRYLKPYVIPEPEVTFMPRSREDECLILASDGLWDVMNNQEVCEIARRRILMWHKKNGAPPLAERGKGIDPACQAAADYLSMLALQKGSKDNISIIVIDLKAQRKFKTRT
# assay.protocol: yeast two-hybrid, X-gal; lowest mandipropamid concentration giving signal
quantity: Threshold (µM)
Write the answer as a number in µM, unit excluded.

1) PYR1^K59R,F108E (receptor, not shown: small tags and cut ends, pBD-PYR1 fusion in yeast) MPSELTPEERSELKNSIAEFHTYQLDPGSCSSLHAQRIHAPPELVWSIVRRFDKPQTYRHFIKSCSVEQNFEMRVGCTRDVIVISGLPANTSTERLDILDDERRVTGESIIGGEHRLTNYKSVTTVHRFEKENRIWTVVLESYVVDMPEGNSEDDTRMFADTVVKLNLQKLATVAEAMARNSGDGSGSQVT | 100
2) PYR1^Y58H,K59R,V81I,F108A,S122G (receptor, pBD-PYR1 fusion in yeast) MPSELTPEERSELKNSIAEFHTYQLDPGSCSSLHAQRIHAPPELVWSIVRRFDKPQTHRHFIKSCSVEQNFEMRVGCTRDIIVISGLPANTSTERLDILDDERRVTGASIIGGEHRLTNYKGVTTVHRFEKENRIWTVVLESYVVDMPEGNSEDDTRMFADTVVKLNLQKLATVAEAMARNSGDGSGSQVT | 0.05

Recall and state the measured Threshold for PYR1^K59R,F108G (receptor, not shown: small tags and cut ends, pBD-PYR1 fusion in yeast) MPSELTPEERSELKNSIAEFHTYQLDPGSCSSLHAQRIHAPPELVWSIVRRFDKPQTYRHFIKSCSVEQNFEMRVGCTRDVIVISGLPANTSTERLDILDDERRVTGGSIIGGEHRLTNYKSVTTVHRFEKENRIWTVVLESYVVDMPEGNSEDDTRMFADTVVKLNLQKLATVAEAMARNSGDGSGSQVT .
100
